Experiment: qHTS assay to identify small molecule HDAC inhibitors - cell viability counter screen (AID 1259365); also: % is scaled to controls: 0 for no effect and ±100 for the full control effect; nearly all actives have a fitted effect of over 50% in size
Details: HCT-116 viability, CellTiter-Glo ATP luminescence, 2 h; series mostly up to 92.4 µM
Activity calls are given as the source filed them. Calls follow the shape of the dose curve; as a rule, active = well fitted cell-killing curve with a large enough effect in the repeat runs; inconclusive = weak or mixed curves, or effect the other way; inactive = flat fitted curve, though single readings scatter.
Give one outcome, nothing more. List: active, inactive

Inquiry: Please let me know the test result on file for CCOP(=S)(OCC)OC(Cl)C(Cl)(Cl)Cl (centres undefined) .
Reply text: inactive

* * *

Assay: qHTS assay to identify small molecule antagonists of the peroxisome proliferator-activated receptor delta (PPARd) signaling pathway - cell viability counter screen (AID 743213); also: nearly all actives have a fitted effect of over 50% in size
Conditions: PPARd-bla HEK293H viability, CellTiter-Glo luminescence, 17 h; series mostly up to 62 µM
Records with an inconclusive call do not appear. Active and inactive are the calls of the source. Calls come from the whole dose curve; as a rule, active = well fitted cell-killing curve with a large enough effect in the repeat runs; inconclusive = weak or mixed curves; inactive = no such curve, though single readings can be large or run the other way.
Give one outcome, nothing more. List: 1.0 (active), 0.0 (inactive)

Clc1ccc(CSC(Cn2ccnc2)c2ccc(Cl)cc2Cl)cc1 (stereo unspecified) ... 1.0

Inquiry: Please let me know the test result on file for `ClC(Cl)=C(Cl)Cl` .
Reply text: 0.0

Inquiry: Please let me know the test result on file for `CC(=O)[O-].CC(=O)[O-].[Hg+2]` .
Reply text: 1.0

Inquiry: Please let me know the test result on file for CC(Cc1ccc(C(C)(C)C)cc1)CN1C[C@@H](C)O[C@@H](C)C1 (stereo partly specified) .
Reply text: 0.0

Inquiry: Please let me know the test result on file for `ClC(Cl)=C(c1ccc(Cl)cc1)c1ccc(Cl)cc1` .
Reply text: 0.0

* * *

Experiment: Caspase-3/7 induction in HepG2 cells by small molecules, qHTS cell viability counter screen (AID 1346981); also: nearly all actives have a fitted effect of over 30% in size
Conditions: CellTiter-Fluor fluorescence, 17 h; series mostly up to 92.4 µM
Source text: U.S. Tox21 Program National Center for Advancing Translational Sciences [NCATS] NIH Chemical Genomics Center [NCGC] U.S. Environmental Protection Agency [EPA] National Institutes of Environmental Health Sciences [NIEHS] National Toxicology Program [NTP] U.S. Food and Drug Administration [FDA] Tox21 Assay Overview: Apoptosis is a process of programmed cell death and plays a central role in the development of multicellular organisms. […]
Records with an inconclusive call do not appear. Activity calls are given as the source filed them. Calls follow the shape of the dose curve; as a rule, active = well fitted cell-killing curve with a large enough effect in the repeat runs; inconclusive = weak or mixed curves, or effect the other way; inactive = flat fitted curve, though single readings scatter.
Give one outcome, nothing more. List: active, inactive

Answered examples (5):
Oc1ccccc1Br ... inactive
CC(C)OS(C)(=O)=O ... inactive
CCSC(C)CC1CC(=O)C(/C(CC)=N/OC/C=C/Cl)=C(O)C1 (stereo unspecified) ... inactive
CCOC(=O)OC1=C(c2cc(C)ccc2C)C(=O)NC12CCC(OC)CC2 (stereo unspecified) ... inactive
CN(CCCC(=O)c1cccnc1)N=O ... inactive

Inquiry: Please let me know the test result on file for `CCCN(CCC)c1c([N+](=O)[O-])cc(S(N)(=O)=O)cc1[N+](=O)[O-]` .
Reply text: active

Inquiry: Please let me know the test result on file for `CN(C)C(=S)S` .
Reply text: inactive

Inquiry: Please let me know the test result on file for `N#C/C=C/C#N` .
Reply text: inactive

Inquiry: Please let me know the test result on file for `CN(C)c1ccc(N=Nc2ccccc2)cc1` .
Reply text: active

Inquiry: Please let me know the test result on file for `CC(C)C(=O)Cl` .
Reply text: inactive

* * *

Molecular target: Estrogen receptor (Homo sapiens) (UniProt P03372)
Sequence (P03372 whole entry, looked up): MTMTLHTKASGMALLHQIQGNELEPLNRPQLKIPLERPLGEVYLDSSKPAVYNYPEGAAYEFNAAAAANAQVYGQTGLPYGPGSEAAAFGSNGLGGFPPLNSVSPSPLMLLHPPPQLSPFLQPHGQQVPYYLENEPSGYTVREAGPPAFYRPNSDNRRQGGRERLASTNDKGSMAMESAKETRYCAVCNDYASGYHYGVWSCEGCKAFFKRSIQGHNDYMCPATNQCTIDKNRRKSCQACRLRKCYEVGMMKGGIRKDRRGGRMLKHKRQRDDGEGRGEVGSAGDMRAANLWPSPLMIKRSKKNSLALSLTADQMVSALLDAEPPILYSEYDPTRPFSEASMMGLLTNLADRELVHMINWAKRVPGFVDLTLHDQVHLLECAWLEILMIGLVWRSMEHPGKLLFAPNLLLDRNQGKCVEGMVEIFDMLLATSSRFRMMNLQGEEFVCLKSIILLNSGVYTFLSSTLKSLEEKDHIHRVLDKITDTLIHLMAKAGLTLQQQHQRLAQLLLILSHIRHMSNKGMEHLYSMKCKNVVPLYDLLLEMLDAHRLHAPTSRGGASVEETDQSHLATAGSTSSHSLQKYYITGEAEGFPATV
Test: qHTS assay to identify small molecule antagonists of the estrogen receptor alpha (ER-alpha) signaling pathway (AID 743069)
Settings: HEK293 ER-alpha-UAS-bla, beta-lactamase ratio, antagonist mode; series mostly up to 69.4 µM
From the text: National Center for Advancing Translational Sciences [NCATS] NIH Chemical Genomics Center [NCGC] U.S. Environmental Protection Agency [EPA] National Institutes of Environmental Health Sciences [NIEHS] National Toxicology Program [NTP] U.S. Food and Drug Administration [FDA] Estrogen receptor (ER), a nuclear hormone receptor, plays an important role in development, metabolic homeostasis and reproduction. […]
Active and inactive are the calls of the source. Calls come from the whole dose curve; as a rule, active = well fitted curve in the direction sought with a large enough effect in the signal ratio in the repeat runs (not every such curve was filed as active); inconclusive = weak or mixed curves, or effect the other way; inactive = no such curve, though single readings can be large or run the other way; the % refers to the signal ratio.
Give one outcome, nothing more. List: 1 for active, -1 for inactive

O=C(O)COc1nc(Cl)c(Cl)cc1Cl ... -1
Oc1ccc(C(=C(Cl)Cl)c2ccc(O)cc2)cc1 ... 1
Cc1ccc(OP(=O)(Oc2ccccc2)Oc2ccccc2)cc1 ... -1

Inquiry: Please let me know the test result on file for `BrCBr` .
Reply text: -1

Inquiry: Please let me know the test result on file for `O=[N+]([O-])c1ccc(Oc2ccc(C(F)(F)F)cc2[N+](=O)[O-])cc1` .
Reply text: -1

Inquiry: Please let me know the test result on file for `c1ccc(Nc2ccc3ccccc3c2)cc1` .
Reply text: -1
